The measurements presented in this section are drawn from patent US20160130351A1.

Target: soluble human IL-6Rc (shuIL-6Rc) recombinant fusion protein of IL-6R and IL-6 (human) (UniProt P08887)
Assay: SPR (Biacore 2000), mAb captured on anti-human IgG Fc, analyte in solution, 25 C, 1:1 Langmuir

- BINDER: "NI-1201-B antibody (antibody, V domains shown) VH: QVQLVQSGAEVKKPGSSVKVSCKASGGTFSSYAISWVRQAPGQGLEWMGGIIPLFDTTKYAQKFQGRVTITADESTSTAYMELSSLRSEDTAVYYCARDRDILTDYYPLGGMDVWGQGTTVTVSS VL: AIQLTQSPSSLSASVGDRVTITCRASQGISSVLAWYQQKPGKAPKLLIYDASSLESGVPSRFSGSGSGTDFTLTISSLQPEDFATYYCQQSNSYPLTFGGGTKVEIKR"
  koff / s⁻¹: 0.000237
- BINDER: "NI-1201-D antibody (antibody, V domains shown) VH: QVQLVQSGAEVKKPGSSVKVSCKASGGTFSSYAISWVRQAPGQGLEWMGGIIPAFETTKYAQKFQGRVTITADESTSTAYMELSSLRSEDTAVYYCARDRDILTDYYPLGGMDVWGQGTTVTVSS VL: AIQLTQSPSSLSASVGDRVTITCRASQGISSVLAWYQQKPGKAPKLLIYDASSLESGVPSRFSGSGSGTDFTLTISSLQPEDFATYYCQQSQSYPLTFGGGTKVEIKR"
  koff / s⁻¹: 0.000222
- BINDER: "NI-1201-C antibody (antibody, V domains shown) VH: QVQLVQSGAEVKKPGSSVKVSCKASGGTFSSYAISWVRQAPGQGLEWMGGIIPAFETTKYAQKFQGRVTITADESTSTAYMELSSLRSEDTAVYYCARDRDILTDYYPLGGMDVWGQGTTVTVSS VL: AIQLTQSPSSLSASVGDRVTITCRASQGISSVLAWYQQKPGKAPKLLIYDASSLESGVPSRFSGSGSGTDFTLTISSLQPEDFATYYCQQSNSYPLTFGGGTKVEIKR"
  koff / s⁻¹: 0.00024
